Each entry below carries its reported IC50.
Test system: A549 cells
Test: Cell-based assay, anti-proliferative activity (Cell Counting Kit-8, 72 hours)
Design: species or system human
Conditions: Homo sapiens, A549, 72 h, read-out: IC50 (μM) (A549)
Description: Active candidate inhibitors against MELK were evaluated for their target-specific cytotoxicity using 22Rv1, T47D, A549, DU4475 and HT-1197 cells was used for negative control. 100 micro-L of cell suspension was seeded onto 96-well microtiter plate (ViewPlate-96FTC, PerkinElmer). […] Cellular growth was determined using Cell Counting Kit-8 (DOJINDO) at 72 hours after the exposure of the candidate inhibitors. […] Accurate IC50 values were calculated as described previously.
Structures can show the parent of a compound that is named as a salt.
Response body: numeric value in µM, unit text excluded.

{"compound": "CC(=O)c1cnc2ccc(-c3cc(F)c(O)c(Cl)c3)nc2c1N[C@H]1CC[C@H](CCN(C)C)CC1 [Example 10, dihydrochloride]", "metric-name": "IC50", "readout-value": 0.012}
{"compound": "CN(C)C[C@H]1CC[C@H](Nc2c(C(=O)CO)cnc3ccc(-c4cc(F)c(O)c(Cl)c4)nc23)CC1 [Example 204, dihydrochloride]", "metric-name": "IC50", "readout-value": 0.058}
{"compound": "CCC(=O)c1cnc2ccc(-c3cc(Cl)c(O)c(Cl)c3)nc2c1N[C@H]1CC[C@H](CN(C)C)CC1 [Example 206, dihydrochloride]", "metric-name": "IC50", "readout-value": 0.061}
{"compound": "CN(C)C[C@H]1CC[C@H](Nc2c(C(=O)CO)cnc3ccc(-c4cc(Cl)c(O)c(Cl)c4)nc23)CC1 [Example 44, dihydrochloride]", "metric-name": "IC50", "readout-value": 0.0067}
{"compound": "COc1cc(-c2ccc3ncc(C(C)=O)c(Nc4ccc(CCN(C)C)cc4)c3n2)cc(Cl)c1O [Example 31, dihydrochloride]", "metric-name": "IC50", "readout-value": 0.31}
{"compound": "CC(=O)c1cnc2ccc(-c3ccc4[nH]cnc4c3)nc2c1N[C@H]1CC[C@H](CN(C)C)CC1 [Example 55, trihydrochloride]", "metric-name": "IC50", "readout-value": 0.25}

Query compound follows.
State its IC50: CCC(=O)c1cnc2ccc(-c3cc(F)c(O)c(Cl)c3)nc2c1N[C@H]1CC[C@H](CN(C)C)CC1 [Example 205, dihydrochloride]
0.032

----------
Test system: 22Rv1 cells
Experiment: Cell-based assay, anti-proliferative activity (Cell Counting Kit-8, 72 hours)
Design: species or system human
Details: Homo sapiens, 22Rv1, 72 h, read-out: IC50 (μM) (22Rvl)
Where a name gives a salt, the structure may show the parent alone.
metric-name: IC50

Worked cases, answers included:
{"molecule": "CN(C)C[C@H]1CC[C@H](Nc2c(C(=O)C3CC3)cnc3ccc(-c4cc(Cl)c(O)c(Cl)c4)nc23)CC1 [Example 4, dihydrochloride]", "target-entity": "22Rv1 cells", "IC50": "0.0064 µM"}
{"molecule": "CC(=O)c1cnc2ccc(-c3cc(Cl)c(O)c(Cl)c3)nc2c1N[C@H]1CC[C@@H](CN(C)C)CC1 [Example 94, dihydrochloride]", "target-entity": "22Rv1 cells", "IC50": "0.028 µM"}
{"molecule": "CC(=O)c1cnc2ccc(-c3cc(Cl)c(O)c(Cl)c3)nc2c1N[C@H]1CC[C@H](N)CC1 [Example 66, dihydrochloride]", "target-entity": "22Rv1 cells", "IC50": "0.0045 µM"}
{"molecule": "CC(=O)c1cnc2ccc(-c3cnc4[nH]ccc4c3)nc2c1N[C@H]1CC[C@H](CN(C)C)CC1 [Example 82, trihydrochloride]", "target-entity": "22Rv1 cells", "IC50": "0.37 µM"}

State its IC50: CN(C)C[C@H]1CC[C@H](Nc2c(C(=O)CO)cnc3ccc(-c4cc(F)c(O)c(Cl)c4)nc23)CC1 [Example 204, dihydrochloride]
0.02 µM

State its IC50: CC(=O)c1cnc2ccc(-c3cc(F)c(O)c(Cl)c3)nc2c1Nc1ccc(OCCN(C)C)nc1 [Example 22, dihydrochloride]
0.35 µM
